- System: OVCAR-4 ovarian
- METHOD_SUMMARY: NCI tumour cell line growth inhibition, 48 h
OUTCOME_MEASURE: TGI

For orientation, consider the following solved cases.
COMPOUND	RESULT
COC(=O)c1ccc(Cc2cc(Cc3ccc(C(=O)OC)cc3)cc(Cc3ccc(C(=O)OC)cc3)c2)cc1	> 25 µM
CN(C)C(=S)/N=c1\ssc(=S)n1C1CCCCC1	> 100 µM
CC#Cc1ccc(-c2ccccc2)s1	> 100 µM
CCNC(=O)c1ccc(C)c(N=NN(C)C)c1	> 100 µM

(Q) State the recorded TGI for this entry: `CCOC(=O)C(=[N+]=[N-])C(=O)CN1C(=O)c2ccccc2C1=O`
(A) > 100 µM

(Q) Input `CC(C)[C@@H]1NC(=O)[C@]2(C)CSC(=N2)c2ccnc(c2)CNC(=O)C[C@@H](/C=C/CCS)OC1=O`
(A) > 100 µM

(Q) Input `CCOc1ccc(NC2=CC(=O)C(=O)c3ccccc32)cc1`
(A) 7.8 µM

(Q) Input C=C1C(=O)O[C@@H]2/C=C(C)/C=C\[C@@H]3O[C@@]3(C)C[C@@H](O)C12 (stereo partly specified)
(A) 38.2 µM

(Q) Input CN(C)C=Nc1nc(=O)n(C2CCC(CO)O2)cc1F (stereo unspecified)
(A) > 100 µM

(Q) Input Cc1ccc(S(=O)(=O)N2CCC2c2ccccc2)cc1 (stereo unspecified)
(A) > 100 µM

(Q) Input COc1ccc(C2c3cc4c(cc3OC3(OC)COC(=O)C23)OCO4)c(OC)c1 (stereo unspecified)
(A) > 100 µM

(Q) Input Cc1ccc(S(=O)(=O)N2C3C=CC(C3)[C@@H]2C(Cl)(Cl)Cl)cc1 (stereo partly specified)
(A) > 77.1 µM

###

- Test system: SN12C renal
- METHOD_SUMMARY: NCI tumour cell line growth inhibition, 48 h
OUTCOME_MEASURE: TGI

(Q) State the recorded TGI for this entry: O=c1[nH]c2cc(Cl)ccc2nc1/C(=N\Nc1ccccc1)C(O)c1ccc(Cl)c(Cl)c1 (configuration not stated)
(A) > 100 µM

(Q) Input `COc1cc(-c2nc3sccn3c2-c2ccnc(NCCNS(=O)(=O)c3ccc(F)cc3)n2)ccc1F`
(A) > 100 µM

(Q) Input `O=C1c2cccc3cc([N+](=O)[O-])cc(c23)C(=O)N1Nc1ccc([N+](=O)[O-])cc1[N+](=O)[O-]`
(A) > 73.5 µM

(Q) Input COc1cc(S(=O)(=O)Nc2ccc(-c3csc(N4C(=O)CSC4c4cccc(Oc5ccccc5)c4)n3)cc2)ccc1Cl (configuration not stated)
(A) > 100 µM

(Q) Input `O=C(Nc1nn2c(-c3cc(C(F)(F)F)cc(C(F)(F)F)c3)nnc2s1)C1CCCC1`
(A) > 36.7 µM

(Q) Input O=C(CC1Sc2ccccc2NC1=O)Nc1ccccc1[N+](=O)[O-] (configuration not stated)
(A) > 100 µM

(Q) Input COc1cc(C2C(Cl)C(=O)N2n2cnc3ccccc3c2=O)ccc1O (configuration not stated)
(A) > 100 µM

(Q) Input COCCOCOC(CCCCO)c1cc(C)c(O[Si](C)(C)C(C)(C)C)c(C)c1 (configuration not stated)
(A) 8.73 µM

(Q) Input `CC1(C)[C@@H](Cn2cc(I)c(=O)[nH]c2=O)CC[C@@]1(C)CO`
(A) > 100 µM

(Q) Input `CCCCCCc1cc2cc(-c3cn4ccsc4n3)c(=O)oc2cc1O`
(A) > 100 µM

(Q) Input `C/C(CN1C(=O)c2ccccc2C1=O)=N\NS(=O)(=O)c1ccc(Cl)cc1`
(A) > 100 µM

(Q) Input `C=CCNC(=S)N/C=C(\C#N)C(N)=O`
(A) > 100 µM

###

- Tested on: DU-145 prostate
- METHOD_SUMMARY: NCI tumour cell line growth inhibition, 48 h
OUTCOME_MEASURE: GI50

In [3]: df
Out[3]:
                                   compound    tested_system  outcome_measure   result
0  Cc1ccc(-c2nc(N3CCNCC3)c3oc(-c4ccc(C)cc4)nc3n2)cc1  DU-145 prostate             GI50  1.98 µM

Here is the next item to consider.
(Q) State the recorded GI50 for this entry: `c1ccc(Nc2ncc(-c3ccccc3)o2)cc1`
(A) > 25 µM

###

Reported TGI is given for each of the following molecules.
- Test system: SF-268 CNS
- METHOD_SUMMARY: NCI tumour cell line growth inhibition, 48 h

For orientation, consider the following solved cases.
>>> print(df.to_string())
                                   molecule    result
0  COc1ccc(C2Oc3cc(OC)c(OC)cc3C2CCl)cc1OC (stereo unspecified)  > 100 µM
1  CC(=O)CC1CCC(=O)/C=C/C(=O)OC(CC(C)=O)CCC(=O)/C=C/C(=O)O1 (stereo unspecified)     74 µM
2      O=C(C(=O)n1ccc2ccccc21)n1ccc2ccccc21  > 100 µM
3  O=c1cc(-c2ccc3c(c2)OCO3)[nH]c2cc3c(cc12)OCO3  > 100 µM
4  O=C1NC(=NCc2ccccc2)S/C1=C\c1ccc2ncccc2c1   > 25 µM

(Q) Requested read-out TGI, target or system SF-268 CNS, entry `COc1ccc2ncnc(Nc3ccc(OCc4ccccc4)cc3)c2c1`
(A) > 25 µM

(Q) Input `Cc1ccc(-c2nc(N3CCNCC3)c3oc(-c4ccc(C)cc4)nc3n2)cc1`
(A) 5.61 µM

(Q) Input `CCOc1ccc(NC2=CC(=O)C(=O)c3ccccc32)cc1`
(A) 22.4 µM

(Q) Input `O=c1[nH]c(=O)c2c3n(cc2[nH]1)CCCCC3`
(A) > 100 µM

(Q) Input `CC(C)[C@@H]1NC(=O)[C@]2(C)CSC(=N2)c2ccnc(c2)CNC(=O)C[C@@H](/C=C/CCS)OC1=O`
(A) > 100 µM

(Q) Input CC1NC(=O)C(C)C(c2ccccc2)N(N=O)C1c1ccccc1 (stereo unspecified)
(A) > 100 µM

###

Reported TGI is given for each of the following compounds.
- System: SN12C renal
- METHOD_SUMMARY: NCI tumour cell line growth inhibition, 48 h
Where a SMILES comes first, the peptide text is derived from it. The star is where a group is joined. OSu = O=C1CCC(=O)N1O*

For orientation, consider the following solved cases.
COMPOUND	TGI
O=C(C(=O)n1ccc2ccccc21)n1ccc2ccccc21	> 100 µM
Cc1[cH-]c(=O)n(-c2ccccc2)n1.[Au+].[Au].c1ccc([PH+](c2ccccc2)c2ccccc2)cc1.c1ccc([PH+](c2ccccc2)c2ccccc2)cc1	> 100 µM

(Q) State the recorded TGI for this entry: NCCCCC(NC(=O)C(N)Cc1ccc(O)cc1)C(=O)NC(CCCCN)C(=O)NC(CCCCN)C(=O)ON1C(=O)CCC1=O (centres undefined) (H-YKKK-OSu; configuration not given here)
(A) > 100 µM

(Q) Input `COc1cc(-c2cccs2)sc1-c1cccs1`
(A) > 100 µM

###

Reported TGI is given for each of the following compounds.
- System: SF-268 CNS
- METHOD_SUMMARY: NCI tumour cell line growth inhibition, 48 h

In [3]: df
Out[3]:
                                   compound  tested_system    result
0  CN1CCN(c2ccc(Nc3ncc(Cl)c(NC[C@@H]4CCCO4)n3)cc2)CC1     SF-268 CNS   12.9 µM
1  Cc1ccc(C(=O)OC(C(=O)O)C(OC(=O)c2ccc(C)cc2)C(=O)O)cc1 (centres undefined) (tested in a mixture with another compound)     SF-268 CNS   28.3 µM
2        CC(N)/C(N)=N/O (centres undefined)     SF-268 CNS  > 100 µM
3    COc1ccccc1CC(=O)C(O)(C(F)(F)F)C(F)(F)F     SF-268 CNS  > 100 µM
4  CC(=C(c1ccc(OCCN2CCCCC2)cc1)c1ccc(OCCN2CCCCC2)cc1)c1ccc(Cl)cc1     SF-268 CNS  0.873 µM
5            CCOC(=O)c1nnn(CCCCO)c1C(=O)OCC     SF-268 CNS  > 100 µM

(Q) State the recorded TGI for this entry: `NC(=S)N/N=C\c1nccc2c(C(F)(F)F)cccc12`
(A) 21.6 µM

###

Reported TGI is given for each of the following compounds.
- Test system: NCI/ADR-RES ovarian
- METHOD_SUMMARY: NCI tumour cell line growth inhibition, 48 h

For orientation, consider the following solved cases.
                            molecule_smiles    result
0  O=C1NC(=NCc2ccccc2)S/C1=C\c1ccc2ncccc2c1   > 25 µM
1            Cc1ccc2nc(-c3ccccc3)cc(=O)n2c1  > 100 µM

Here is the next item to consider.
(Q) Requested read-out TGI, target or system NCI/ADR-RES ovarian, entry `C[C@]12[C@@H]3CC[C@H]1[C@@H](O)C(=O)N2CC3`
(A) > 100 µM
